test system: G-clamp-N3 (biotin conjugate); experiment: pull-down binding Z-score (relative to library population); higher = stronger binding; conditions: RNA library: Library-1 (pre-miRNA loops + repeats)
parameter: pull-down binding Z-score

# item sequence, parameter, recorded measurement
measured = [
    ("UGCUUUACUUUUAAUGGCA [hsa-mir-548k]", "pull-down binding Z-score", -0.352),
    ("CUGUGACGUGCUCCAUCACCGGGCAG [hsa-mir-3714]", "pull-down binding Z-score", 0.138),
    ("AGAAGACCU [hsa-mir-378g]", "pull-down binding Z-score", 0.213),
    ("UGUUUCUUUAUUGAGGACGAAACA [hsa-mir-329-2]", "pull-down binding Z-score", 0.973),
    ("GAAGCUGUAAGACACAGCUAAGCUUU [hsa-mir-30d]", "pull-down binding Z-score", -0.32),
    ("UACUAACAGCACUGGAGGGUGUA [hsa-mir-142]", "pull-down binding Z-score", 2.68),
    ("CCAAAUCAGAAAAGGAUUUGG [hsa-mir-4520-1]", "pull-down binding Z-score", 4.83),
    ("CGGUCCCAUAUUGAACUCG [hsa-mir-4444-1_4444-2]", "pull-down binding Z-score", -1.03),
    ("CUCAUGUAAACUAAAACAUGAU [hsa-mir-508]", "pull-down binding Z-score", -1.91),
    ("CUGUUGUGCCUAAUUCAGAG [hsa-mir-296]", "pull-down binding Z-score", -0.279),
    ("UGCACCAGUUCUGGCCGCUGGUGGA [hsa-mir-4683]", "pull-down binding Z-score", -0.459),
    ("AGAAACCUACUUAUUACAUAGUUUACAUAAGAAGCGUGAU [hsa-mir-1322]", "pull-down binding Z-score", -0.594),
    ("GUGAACCUGAAUUUGCCUUGGGUUUCCU [hsa-mir-670]", "pull-down binding Z-score", -0.325),
    ("CUUCCUGAGCACGCUCAUGAUGAGCAAACUGAGCCUCUAAG [hsa-mir-3653]", "pull-down binding Z-score", -0.859),
    ("CUUAAUAGAUUAAUAUUUGUAAG [hsa-mir-506]", "pull-down binding Z-score", 0.431),
    ("GCCAGUCAGCGCUCACAUUAAGGCUGAC [hsa-mir-2277]", "pull-down binding Z-score", -0.612),
    ("GUCUUGAUCCCCCACCCCAAGAC [hsa-mir-642b]", "pull-down binding Z-score", -1.37),
    ("GUCAUUUCCCAUCACUAAUGGC [hsa-mir-6815]", "pull-down binding Z-score", -0.92),
    ("UGAGUGGCAUAAUCAGAGUACAAUUUGAGUCAUGCCCAUACAUCA [hsa-mir-23c]", "pull-down binding Z-score", -1.1),
    ("GUGAUAGGAUUUAUCAC [hsa-mir-4999]", "pull-down binding Z-score", -0.554),
    ("GGUAGAGAUGAUUUUUCCUACU [hsa-mir-5003]", "pull-down binding Z-score", 0.245),
    ("GGGACACAUUUGAGCCAAAUGUCCC [hsa-mir-610]", "pull-down binding Z-score", -0.286),
    ("GAAAUAGGCUGCGAAGAUAACAGUAUUUC [hsa-mir-3942]", "pull-down binding Z-score", 0.773),
]
